Tested on: Trypanosoma brucei
Experiment: Inhibition of recombinant Trypanosoma brucei His6-tagged HK1 expressed in Escherichia coli M15(pREP) harboring pQE30 at 10 uM using glucose as substrate by spectrophotometric based glucose 6-phosphate dehydrogenase enzyme coupled assay
Measurement kind: inhibition

Worked set:
O=C(O)c1ccc(-n2sc3ccccc3c2=O)cc1 ... 0%
O=C(O)c1ccc(-n2[se]c3ccccc3c2=O)cc1 ... 17.2%
CC(C)C[C@@H](NC(=O)[C@@H](CCCCN)NC(=O)[C@@H](C)NC(=O)CNC(=O)CNC(=O)c1cccc2c(=O)n(-c3ccccc3)[se]c12)C(=O)O ... 0%

**Q:** Form field: inhibition recorded for `CC(C)C[C@@H](NC(=O)[C@@H](CCCCN)NC(=O)[C@@H](C)NC(=O)CNC(=O)CNC(=O)Cn1[se]c2ccccc2c1=O)C(=O)O` with Trypanosoma brucei (enter value)
**A:** 1.7%

====

Test system: Trypanosoma brucei
Experiment: Inhibition of recombinant Trypanosoma brucei His6-tagged HK1 expressed in Escherichia coli M15(pREP) harboring pQE30 at 10 uM using glucose as substrate by spectrophotometric based glucose 6-phosphate dehydrogenase enzyme coupled assay
Measurement kind: inhibition (%)
Give bare numbers, in %.

Worked set:
CC(C)C[C@@H](NC(=O)[C@@H](CCCCN)NC(=O)[C@@H](C)NC(=O)CNC(=O)CNC(=O)c1ccc(-n2sc3ccccc3c2=O)cc1)C(=O)O ... 10.4
CC(C)C[C@H](NC(=O)[C@H](CCCCN)NC(=O)[C@H](C)NC(=O)CCOCCOCCNC(=O)c1ccc(-n2[se]c3ccccc3c2=O)cc1)C(=O)O ... 0
COC(=O)c1cccc2c(=O)n(-c3ccccc3)[se]c12 ... 2.7

Hey, can you go through the list below and give me inhibition for every item?
1. CC(C)C[C@@H](NC(=O)[C@@H](CCCCN)NC(=O)[C@@H](C)NC(=O)CNC(=O)CNC(=O)c1cccc(-n2sc3ccccc3c2=O)c1)C(=O)O
2. COC(=O)c1ccc(-n2sc3ccccc3c2=O)cc1
3. COC(=O)Cn1sc2ccccc2c1=O
4. CC(C)C[C@H](NC(=O)[C@H](CCCCN)NC(=O)[C@H](C)NC(=O)CCOCCOCCNC(=O)c1ccc(-n2sc3ccccc3c2=O)cc1)C(=O)O
5. CC(C)C[C@@H](NC(=O)[C@@H](CCCCN)NC(=O)[C@@H](C)NC(=O)CNC(=O)CNC(=O)c1cccc2c(=O)n(-c3ccccc3)sc12)C(=O)O

**A:**
1. 0
2. 22.8
3. 12.8
4. 0
5. 0

Hey, can you go through the list below and give me inhibition for every item?
1. COC(=O)c1cccc(-n2[se]c3ccccc3c2=O)c1
2. COC(=O)c1cccc(-n2sc3ccccc3c2=O)c1
3. O=C(O)c1cccc2c(=O)n(-c3ccccc3)sc12

**A:**
1: 0; 2: 1.7; 3: 0

====

Assay: Inhibition of recombinant Trypanosoma brucei His6-tagged HK1 expressed in Escherichia coli M15(pREP) harboring pQE30 using glucose as substrate after 2 hrs by spectrophotometric based glucose 6-phosphate dehydrogenase enzyme coupled assay
Measurement kind: pIC50
Answers are plain numbers, as −log10 of the molar value.

O=c1c2ccccc2[se]n1-c1ccccc1 ... 7.30

Now for another entry.
**Q:** So what's the measured pIC50 for this one? `O=c1c2ccccc2sn1-c1ccccc1`
**A:** 5.70

====

Assign inhibition to each entry below.
Tested on: Trypanosoma brucei
Test: Inhibition of recombinant Trypanosoma brucei His6-tagged HK1 expressed in Escherichia coli M15(pREP) harboring pQE30 at 10 uM using glucose as substrate by spectrophotometric based glucose 6-phosphate dehydrogenase enzyme coupled assay
One number for each entry, in %.

Worked set:
O=C(O)c1cccc(-n2[se]c3ccccc3c2=O)c1 ... 18.5
COC(=O)Cn1[se]c2ccccc2c1=O ... 0
CC(C)C[C@@H](NC(=O)[C@@H](CCCCN)NC(=O)[C@@H](C)NC(=O)CNC(=O)CNC(=O)c1ccc(-n2[se]c3ccccc3c2=O)cc1)C(=O)O ... 0
O=C(O)Cn1[se]c2ccccc2c1=O ... 0
CC(C)C[C@@H](NC(=O)[C@@H](CCCCN)NC(=O)[C@@H](C)NC(=O)CNC(=O)CNC(=O)Cn1sc2ccccc2c1=O)C(=O)O ... 3.7

Hey, can you go through the list below and give me inhibition for every item?
1. COC(=O)c1ccc(-n2[se]c3ccccc3c2=O)cc1
2. O=C(O)c1cccc2c(=O)n(-c3ccccc3)[se]c12
3. O=C(O)Cn1sc2ccccc2c1=O

**A:**
1. 79
2. 0
3. 0.87

Hey, can you go through the list below and give me inhibition for every item?
1. O=C(O)c1cccc(-n2sc3ccccc3c2=O)c1
2. COC(=O)c1cccc2c(=O)n(-c3ccccc3)sc12

**A:**
[0, 18]

**Q:** So what's the measured inhibition for this one? `CC(C)C[C@@H](NC(=O)[C@@H](CCCCN)NC(=O)[C@@H](C)NC(=O)CNC(=O)CNC(=O)c1cccc(-n2[se]c3ccccc3c2=O)c1)C(=O)O`
**A:** 0
